Recorded values, source the supplement of paper PMC7877785.

Test: self-splicing fitness, log relative to wild type (ln ratio); higher = more splicing; Tetrahymena group I intron in knt gene, E. coli kanamycin selection, DiMSum; sequences stand for … in CUCUCU…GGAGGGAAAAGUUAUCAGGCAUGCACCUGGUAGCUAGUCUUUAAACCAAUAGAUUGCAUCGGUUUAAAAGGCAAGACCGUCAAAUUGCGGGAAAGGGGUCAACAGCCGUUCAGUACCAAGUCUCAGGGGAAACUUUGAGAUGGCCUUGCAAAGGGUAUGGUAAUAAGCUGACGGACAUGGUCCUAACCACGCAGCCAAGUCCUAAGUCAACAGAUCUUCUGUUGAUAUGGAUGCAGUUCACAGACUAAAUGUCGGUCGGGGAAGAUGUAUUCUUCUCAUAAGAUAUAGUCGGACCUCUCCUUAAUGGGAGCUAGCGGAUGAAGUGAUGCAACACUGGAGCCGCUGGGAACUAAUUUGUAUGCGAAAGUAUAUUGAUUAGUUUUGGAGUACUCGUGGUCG;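 further: selection with 25 µg/mL kanamycin versus none on LB agar overnight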
Settings: 37 °C
measure: self-splicing fitness (ln)
In your answer, state the number alone without any accompanying words.

Solved cases below.
chainSequence | measure | testResult
UCAUAGCAAUAUUACGUGAG | self-splicing fitness (ln) | -0.39
UCGAAGCAAUAUUACGGCAC | self-splicing fitness (ln) | -1.95
CCUCAGCAAUAUUACGCGCU | self-splicing fitness (ln) | -2.79
CUUAAGCAAUAUUACGUCUA | self-splicing fitness (ln) | -2.97
CCCCAGCAAUAUUACGGAGU | self-splicing fitness (ln) | -2.75
CGUCAGCAAUAUUACGCAUU | self-splicing fitness (ln) | -2.31

Dear colleague, I am looking for the recorded self-splicing fitness (ln) of the following sequence: UCGUAGCAAUAUUACGGACU
-0.974

Likewise for AACAAGCAAUAUUACGCCGA ?
-1.27

Likewise for AACGAGCAAUAUUACGCCGA ?
-2.42

----------
Assay: self-splicing fitness, log relative to wild type (ln ratio); higher = more splicing; Tetrahymena group I intron in knt gene, E. coli kanamycin selection, DiMSum; sequences stand for … in CUCUCU…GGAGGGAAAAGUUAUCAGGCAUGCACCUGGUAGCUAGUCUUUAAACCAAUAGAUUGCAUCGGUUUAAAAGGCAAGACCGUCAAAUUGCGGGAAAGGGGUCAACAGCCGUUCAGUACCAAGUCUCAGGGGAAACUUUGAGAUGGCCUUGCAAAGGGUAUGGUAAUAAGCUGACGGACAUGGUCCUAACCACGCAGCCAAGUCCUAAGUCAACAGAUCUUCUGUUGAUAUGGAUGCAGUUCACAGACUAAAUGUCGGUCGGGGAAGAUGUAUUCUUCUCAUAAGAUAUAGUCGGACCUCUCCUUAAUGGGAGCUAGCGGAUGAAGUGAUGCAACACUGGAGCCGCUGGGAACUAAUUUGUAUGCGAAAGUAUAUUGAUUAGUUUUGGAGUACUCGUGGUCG
Details: 30 °C
measure: self-splicing fitness (ln)
In your answer, state the number alone without any accompanying words.

chainSequence | self-splicing fitness (ln)
AAAUAGCAAUAUUACGGUGC | -4.05
UCGGAGCAAUAUUACGAAAU | -3.14
CGAAAGCAAUAUUACGUAUU | -3.3

Dear colleague, I am looking for the recorded self-splicing fitness (ln) of the following sequence: CUCGAGCAAUAUUACGCACA
-4.64

Likewise for GAUUAGCAAUAUUACGUUAG ?
-2.09

Likewise for CAAGAGCAAUAUUACGGCCU ?
-3.5

Likewise for CAAUAGCAAUAUUACGCGCG ?
-0.577

Likewise for UAGAAGCAAUAUUACGAUCA ?
-0.731

----------
self-splicing fitness (ln) listing for selected sequences.
Test: self-splicing fitness, log relative to wild type (ln ratio); higher = more splicing; Tetrahymena group I intron in knt gene, E. coli kanamycin selection, DiMSum; sequences stand for … in CUCUCU…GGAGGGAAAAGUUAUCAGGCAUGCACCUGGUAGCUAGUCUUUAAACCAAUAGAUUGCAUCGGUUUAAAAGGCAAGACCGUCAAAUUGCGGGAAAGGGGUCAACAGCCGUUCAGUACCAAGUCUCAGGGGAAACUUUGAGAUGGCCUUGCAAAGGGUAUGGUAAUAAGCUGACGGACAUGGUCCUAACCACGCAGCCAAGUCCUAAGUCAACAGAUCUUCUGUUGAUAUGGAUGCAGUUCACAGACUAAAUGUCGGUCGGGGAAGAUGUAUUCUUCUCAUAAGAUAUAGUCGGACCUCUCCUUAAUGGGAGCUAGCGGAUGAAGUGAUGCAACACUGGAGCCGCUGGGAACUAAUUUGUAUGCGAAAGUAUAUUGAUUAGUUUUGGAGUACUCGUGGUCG
Conditions: 30 °C
In your answer, state the number alone without any accompanying words.

chainSequence | self-splicing fitness (ln)
GAUGAGCAAUAUUACGGAUA | -3.94
UUAAAGCAAUAUUACGUAAC | -2.67
ACACAGCAAUAUUACGUUGG | -3
CCCCAGCAAUAUUACGUUAG | -3.99
AUUUAGCAAUAUUACGUAAA | -2.28

Dear colleague, I am looking for the recorded self-splicing fitness (ln) of the following sequence: GGGCAGCAAUAUUACGGUCC
-4.03

Likewise for GACGAGCAAUAUUACGGGGA ?
-3.12

Likewise for CGACAGCAAUAUUACGCGAU ?
-2.8

Likewise for GUUAAGCAAUAUUACGAAGC ?
-2.32

Likewise for GCUAAGCAAUAUUACGCAAC ?
-2.35

----------
Assay: self-splicing fitness, log relative to wild type (ln ratio); higher = more splicing; Tetrahymena group I intron in knt gene, E. coli kanamycin selection, DiMSum; sequences stand for … in CUCUCU…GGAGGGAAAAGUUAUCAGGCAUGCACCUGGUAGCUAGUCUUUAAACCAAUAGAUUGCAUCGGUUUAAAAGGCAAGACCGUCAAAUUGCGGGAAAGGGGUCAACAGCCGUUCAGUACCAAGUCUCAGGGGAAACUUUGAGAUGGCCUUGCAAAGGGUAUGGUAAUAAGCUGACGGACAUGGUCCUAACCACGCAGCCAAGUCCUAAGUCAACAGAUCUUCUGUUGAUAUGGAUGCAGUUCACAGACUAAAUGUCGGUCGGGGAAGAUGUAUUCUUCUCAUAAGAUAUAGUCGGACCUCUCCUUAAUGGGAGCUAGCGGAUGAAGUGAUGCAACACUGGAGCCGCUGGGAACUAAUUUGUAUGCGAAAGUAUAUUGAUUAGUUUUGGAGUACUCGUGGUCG
Settings: 30 °C
Binary classification by self-splicing fitness (ln), with -3 as an inclusive lower bound for label 1; all other cases are label 0.

Would you please look over these solved cases?
chainSequence | group
UGUAAGCAAUAUUACGCCUU | label 1
GUCUAGCAAUAUUACGACUU | label 1
AUAAAGCAAUAUUACGAUUU | label 1
ACGGAGCAAUAUUACGAUCU | label 1
UUACAGCAAUAUUACGCCAA | label 1
AUCGAGCAAUAUUACGGGCU | label 0
GAUGAGCAAUAUUACGUGAU | label 0
AUAUAGCAAUAUUACGGUAG | label 0

Does self-splicing fitness (ln) meet or surpass -3 for UCGUAGCAAUAUUACGACGA ?
label 0

Likewise for GCGCAGCAAUAUUACGAUAA ?
label 1

----------
Test: self-splicing fitness, log relative to wild type (ln ratio); higher = more splicing; Tetrahymena group I intron in knt gene, E. coli kanamycin selection, DiMSum; sequences stand for … in CUCUCU…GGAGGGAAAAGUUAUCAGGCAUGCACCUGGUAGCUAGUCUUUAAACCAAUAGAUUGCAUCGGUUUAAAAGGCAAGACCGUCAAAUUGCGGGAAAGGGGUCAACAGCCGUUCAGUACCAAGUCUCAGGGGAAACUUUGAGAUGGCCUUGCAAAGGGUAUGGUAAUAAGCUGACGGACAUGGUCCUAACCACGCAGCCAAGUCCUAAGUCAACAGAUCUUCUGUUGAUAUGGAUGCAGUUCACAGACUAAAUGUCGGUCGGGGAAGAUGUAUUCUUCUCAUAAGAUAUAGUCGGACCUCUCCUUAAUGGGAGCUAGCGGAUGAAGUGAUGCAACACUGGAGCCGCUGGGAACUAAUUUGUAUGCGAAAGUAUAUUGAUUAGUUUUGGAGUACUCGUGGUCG
Conditions: 37 °C
measure: self-splicing fitness (ln)
In your answer, state the number alone without any accompanying words.

chainSequence | self-splicing fitness (ln)
CGUCAGCAAUAUUACGGCGA | -1.57
GCCGAGCAAUAUUACGGAAC | -0.538
AAGUAGCAAUAUUACGCGUC | -2
UUCCAGCAAUAUUACGGGGC | -2.82
UCAUAGCAAUAUUACGCAUG | -2.77

Dear colleague, I am looking for the recorded self-splicing fitness (ln) of the following sequence: CCCAAGCAAUAUUACGGAUG
-2.49

Likewise for CACUAGCAAUAUUACGUGGA ?
-2.44

Likewise for GUUCAGCAAUAUUACGAGGG ?
-0.563

Likewise for CCACAGCAAUAUUACGACGC ?
-2.08

Likewise for CCCGAGCAAUAUUACGCACG ?
-3.26

Likewise for UCAAAGCAAUAUUACGGGCA ?
-0.273

Likewise for UGGUAGCAAUAUUACGGUUU ?
-2.6

Likewise for CGGCAGCAAUAUUACGGAUG ?
0.507

Likewise for ACGUAGCAAUAUUACGCACU ?
-0.549

Likewise for UCCAAGCAAUAUUACGCCUA ?
0.0562

Likewise for ACGAAGCAAUAUUACGCGGA ?
-1.33
